Below is a list of entries, each paired with its recorded Ki value.
Molecular target: ENPP1 (Homo sapiens)
Sequence (P22413 1-925): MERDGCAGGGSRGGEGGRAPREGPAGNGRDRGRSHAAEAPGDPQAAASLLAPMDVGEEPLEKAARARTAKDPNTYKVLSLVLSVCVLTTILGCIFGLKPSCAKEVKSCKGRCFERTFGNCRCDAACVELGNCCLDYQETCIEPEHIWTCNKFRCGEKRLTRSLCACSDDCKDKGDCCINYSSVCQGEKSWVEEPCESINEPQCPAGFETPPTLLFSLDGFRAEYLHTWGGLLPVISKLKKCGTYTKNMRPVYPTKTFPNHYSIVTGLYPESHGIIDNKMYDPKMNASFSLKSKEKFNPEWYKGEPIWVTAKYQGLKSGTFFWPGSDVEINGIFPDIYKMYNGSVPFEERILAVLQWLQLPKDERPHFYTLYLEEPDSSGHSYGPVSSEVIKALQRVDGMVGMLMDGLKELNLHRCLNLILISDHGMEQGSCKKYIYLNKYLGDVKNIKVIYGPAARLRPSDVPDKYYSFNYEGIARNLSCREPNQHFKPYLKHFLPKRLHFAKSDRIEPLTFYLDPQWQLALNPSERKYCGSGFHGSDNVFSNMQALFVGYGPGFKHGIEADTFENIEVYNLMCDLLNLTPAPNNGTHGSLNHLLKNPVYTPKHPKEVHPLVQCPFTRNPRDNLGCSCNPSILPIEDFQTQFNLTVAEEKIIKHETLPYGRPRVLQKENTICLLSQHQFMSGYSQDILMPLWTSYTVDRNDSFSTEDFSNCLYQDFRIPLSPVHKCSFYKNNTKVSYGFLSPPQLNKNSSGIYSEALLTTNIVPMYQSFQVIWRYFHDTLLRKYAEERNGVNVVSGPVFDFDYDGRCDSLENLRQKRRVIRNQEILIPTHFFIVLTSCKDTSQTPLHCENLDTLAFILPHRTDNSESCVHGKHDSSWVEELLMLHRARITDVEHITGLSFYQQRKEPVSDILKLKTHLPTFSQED
Assay: ENPP1 enzyme assay with TMP-pNP substrate
Format: biochemical
Set-up: purchased R&D Systems
Conditions: Ki from IC50 by Cheng-Prusoff
value-kind: Ki

> print(dat)
                                    compound        reported
 1  COc1cc2ncnc(NCc3ccc(NS(N)(=O)=O)cc3)c2cc1OC [Example 34]        < 100 nM
 2  COc1cc2nc(N)nc(N3CCC(CCNS(N)(=O)=O)CC3)c2cc1OC [Example 1]  100 to 1000 nM
 3  CCN(C)S(=O)(=O)NCCC1CCN(c2ncnc3cc(OC)c(OC)cc23)CC1 [Example 42]       > 1000 nM
 4  NS(=O)(=O)NCCC1CCN(c2ncnc3ccccc23)CC1 [Example 35]       > 1000 nM
 5  Cn1cnc2ncnc(N3CCC(CCNS(N)(=O)=O)CC3)c21 [Example 22]       > 1000 nM
 6  COc1cc2ncnc(N3CCc4c(cccc4NS(N)(=O)=O)C3)c2cc1OC [Example 28]  100 to 1000 nM
 7  COc1cc2nc(-c3ccncc3)nc(N3CCC(CCNS(N)(=O)=O)CC3)c2cc1OC [Example 6]       > 1000 nM
 8  COc1cc2ncnc(N3CCC4(CC3)CCN(S(N)(=O)=O)C4)c2cc1OC [Example 29]        < 100 nM
 9  COc1cc2ncc(C#N)c(N3CCC(CCNS(N)(=O)=O)CC3)c2cc1OC [Example 20]        < 100 nM
10  COc1cc2nccc(N3CCC(CCNS(N)(=O)=O)CC3)c2cc1OC [Example 43]        < 100 nM

Cited source for all entries: patent US20230183239A1
